Test system: Chikungunya Virus (CHIKV) strain LR2006-OPY1 with GFP modification (CHIK 5'LR)
Test: microbe, parasite or virus in culture
Format: cell-based
Settings: HEK-293T, compounds at 1 μM, infected HEK293T cells, MOI 0.1, 22 h, mean of 2 experiments, values above 100 lowered to 100, read-out: % CHIKV Inhibition Mean (n = 2)
For each entry below, report its inhibition at 1 µM value.
A number alone suffices; assume %.

Looking up O=C(NCCC1CCCCC1)c1cccc(Nc2ccc(OCc3ccccn3)cc2)c1 [Compound 38] , I see its inhibition at 1 µM listed as 99

Looking up O=C(NCCC1CCCC1)c1cccc(Nc2ccc(OCc3ccccn3)cc2)c1 [Compound 36] , I see its inhibition at 1 µM listed as 99

Looking up CC(C)CCNC(=O)c1cccc(Nc2ccc(OCc3ccccn3)cc2)c1 [Compound 37] , I see its inhibition at 1 µM listed as 100

Looking up Cc1cc(OCc2ccccn2)ccc1Nc1cccc(C(=O)NCCC2CC2)c1 [Compound 45] , I see its inhibition at 1 µM listed as 99

Looking up O=C(NCCC1CCC1)c1cccc(Nc2ccc(OCc3ccccn3)cc2)c1 [Compound 48] , I see its inhibition at 1 µM listed as 98

Looking up c1ccc(COc2ccc(Nc3cccc(OCCCC4CCCC4)c3)cc2)nc1 [Compound 73] , I see its inhibition at 1 µM listed as 100

Looking up COc1cc(Nc2cccc(C(=O)NCCC3CCCC3)c2)ccc1OCc1ccccn1 [Compound 43] , I see its inhibition at 1 µM listed as 100

Looking up O=C(NCCC1CC1)c1cccc(Nc2ccc(OCc3ccccn3)cc2)c1 [Compound 49] , I see its inhibition at 1 µM listed as 98

Looking up Cc1cc(OCc2ccccn2)ccc1Nc1cccc(C(=O)NCCC2CCC2)c1 [Compound 46] , I see its inhibition at 1 µM listed as 99

Looking up Cc1cc(Nc2cccc(C(=O)NCCC3CCCC3)c2)ccc1OCc1ccccn1 [Compound 40] , I see its inhibition at 1 µM listed as 99

Looking up O=C(NCCC1CCCC1)c1cccc(Nc2ccc(OCc3ccccn3)nc2)c1 [Compound 41] , I see its inhibition at 1 µM listed as 99

Looking up O=C(NCCC1CCCC1)c1cccc(Nc2ccc(OCc3ccccc3)cc2)c1 [Compound 52] , I see its inhibition at 1 µM listed as 99

Looking up Cc1cc(OCc2ccccn2)ccc1Nc1cccc(C(=O)NCCC2CCCCC2)c1 [Compound 47] , I see its inhibition at 1 µM listed as 96

Looking up O=C(NCCC1CCCC1)c1cccc(Nc2ccc(OCc3ccccc3F)cc2)c1 [Compound 50] , I see its inhibition at 1 µM listed as 100

Looking up Cc1cc(OCc2ccccn2)ccc1Nc1cccc(C(=O)NCCC2CCCC2)c1 [Compound 39] , I see its inhibition at 1 µM listed as 98

Looking up N#Cc1ccccc1COc1ccc(Nc2cccc(C(=O)NCCC3CCCC3)c2)cc1 [Compound 51] , I see its inhibition at 1 µM listed as 100
